Experiment: Stability of peptides in simulated gastric fluid (pH 1.5; HCl, NaCl and Pepsin)
Assay type: in vitro ADME
Settings: simulated gastric fluid, 24 h, 2 μM, pH 1.5
Protocol: b) Stability of Peptides in Human Plasma, Simulated Gastric Fluid, Intestinal Fluid and Liver Microsomes (Ex-Vivo): Different short-chain peptides (final concentration 2 μM) were incubated with either pooled human plasma (7.5 μL) or simulated gastric fluid (pH 1.5; composition HCl, NaCl and Pepsin) or simulated intestinal fluid (pH 7.5) or human liver microsomes, for 0, 2, 4, 6, 12 and 24 h (37° C.; 50 mM triethanolamine-HCl buffer; pH 7.8). […]
Where a SMILES comes first, the peptide text is derived from it. [ ]: non-standard residue; d: D form. ξ: configuration not given here. ξαMePhe(2,6-F2) = CC(N)(Cc1c(F)cccc1F)C(=O)O; ξαMe(hhPhe) = CC(N)(CCCc1ccccc1)C(=O)O; ξαMePhe(2-F) = CC(N)(Cc1ccccc1F)C(=O)O; ξαMeW = CC(N)(Cc1c[nH]c2ccccc12)C(=O)O; hArg = N=C(N)NCCCC[C@H](N)C(=O)O; ξαMeNle = CCCCC(C)(N)C(=O)O; Nle = CCCC[C@H](N)C(=O)O; Ac5c = NC1(C(=O)O)CCCC1; Aib = CC(C)(N)C(=O)O
Hi there, I'd appreciate the recorded % degradation of peptides in 24 h when incubated with simulated gastric fluid for every entry that follows.
# do not omit the unit; it follows the number

get_value(item= CCCC[C@H](NC(=O)C(C)(Cc1ccccc1F)NC(=O)[C@H](CCC(N)=O)NC(=O)[C@@H](NC(=O)[C@H](CCC(=O)O)NC(=O)C(C)(C)NC(=O)[C@@H](NC(=O)C1(N)CCCC1)C(C)C)[C@@H](C)CC)C(=O)N[C@@H](Cc1c[nH]cn1)C(=O)N[C@@H](CCC(N)=O)C(=O)NC(C)(C)C(=O)NC(C)(C)C(=O)NC(C)(Cc1c(F)cccc1F)C(=O)NC(C)(Cc1c(F)cccc1F)C(N)=O (some centres unmarked) [Seq. ID. 580] (H-[Ac5c]V[Aib]EIQ[ξαMePhe(2-F)][Nle]HQ[Aib][Aib][ξαMePhe(2,6-F2)][ξαMePhe(2,6-F2)]-NH2) , readout=% degradation of peptides in 24 h when incubated with simulated gastric fluid) returns 12%

Looking up CCCCC(C)(NC(=O)[C@H](CC(C)C)NC(=O)[C@H](CCC(N)=O)NC(=O)[C@@H](NC(=O)[C@H](CCC(=O)O)NC(=O)C(C)(C)NC(=O)[C@@H](NC(=O)C(C)(C)N)C(C)C)[C@@H](C)CC)C(=O)N[C@@H](Cc1c[nH]cn1)C(=O)N[C@@H](CCC(N)=O)C(=O)N[C@@H](CCCCNC(=N)N)C(=O)N[C@@H](C)C(=O)N[C@@H](CCCCNC(=N)N)C(=O)NC(C)(Cc1c[nH]c2ccccc12)C(=O)NC(C)(CCCc1ccccc1)C(N)=O (some centres unmarked) [Seq. ID. 949] (H-[Aib]V[Aib]EIQL[ξαMeNle]HQ[hArg]A[hArg][ξαMeW][ξαMe(hhPhe)]-NH2) , I see its % degradation of peptides in 24 h when incubated with simulated gastric fluid listed as 100%

====

assay: Stability of peptides in simulated gastric fluid (pH 1.5; HCl, NaCl and Pepsin); format: in vitro ADME; conditions: simulated gi fluid, pH 1.5
Where a SMILES comes first, the peptide text is derived from it. [ ]: non-standard residue; d: D form. ξ: configuration not given here. ξαMePhe(2,6-F2) = CC(N)(Cc1c(F)cccc1F)C(=O)O; ξαMePhe(2-F) = CC(N)(Cc1ccccc1F)C(=O)O; hCit = NC(=O)NCCCC[C@H](N)C(=O)O; Cit = NC(=O)NCCC[C@H](N)C(=O)O; Nle = CCCC[C@H](N)C(=O)O; Ac5c = NC1(C(=O)O)CCCC1; Aib = CC(C)(N)C(=O)O
Metric: half-life (t1/2) in simulated gastric fluid

CCCC[C@H](NC(=O)C(C)(Cc1ccccc1F)NC(=O)[C@H](CCC(N)=O)NC(=O)[C@@H](NC(=O)[C@H](CCC(=O)O)NC(=O)C(C)(C)NC(=O)[C@@H](NC(=O)C1(N)CCCC1)C(C)C)[C@@H](C)CC)C(=O)N[C@@H](Cc1c[nH]cn1)C(=O)N[C@@H](CCC(N)=O)C(=O)N[C@@H](CCCCNC(N)=O)C(=O)N[C@@H](C)C(=O)N[C@@H](CCCNC(N)=O)C(=O)NC(C)(Cc1ccccc1F)C(N)=O (some centres unmarked) [Seq. ID. 411] (H-[Ac5c]V[Aib]EIQ[ξαMePhe(2-F)][Nle]HQ[hCit]A[Cit][ξαMePhe(2-F)]-NH2); (8) h
CCCC[C@H](NC(=O)C(C)(Cc1ccccc1F)NC(=O)[C@H](CCC(N)=O)NC(=O)[C@@H](NC(=O)[C@H](CCC(=O)O)NC(=O)C(C)(C)NC(=O)[C@@H](NC(=O)C1(N)CCCC1)C(C)C)[C@@H](C)CC)C(=O)N[C@@H](Cc1c[nH]cn1)C(=O)N[C@@H](CCC(N)=O)C(=O)NC(C)(C)C(=O)NC(C)(C)C(=O)NC(C)(Cc1c(F)cccc1F)C(=O)NC(C)(Cc1c(F)cccc1F)C(N)=O (some centres unmarked) [Seq. ID. 580] (H-[Ac5c]V[Aib]EIQ[ξαMePhe(2-F)][Nle]HQ[Aib][Aib][ξαMePhe(2,6-F2)][ξαMePhe(2,6-F2)]-NH2); (8) h
